# Test system: 475296-252-R-J1-PDC spheroid viability
# protocol-details: Anticancer human tumor 475296-252-R-J1-PDC patient-derived rectal carcinoma cell line growth inhibition [PI3K]
# cond: second compound 0.1 µM; first compound 0.00316 µM; stronger effect = lower value; spheroids with HUVEC and MSC
# Description: Combinatorial screen of targeted agents with the PI3K inhibitors inavolisib, alpelisib, duvelisib, and copanlisib in multi-cell type tumor spheroids A high-throughput screen of multi-cell type tumor spheroids was designed to identify active combinations of targeted small molecules and PI3K pathway inhibitors. […] Compounds. […] If the clinical Cmax for an agent had not been determined, the highest concentration tested was 10 microM. […]
quantity-measured: viability, T/C (%)
Numeric only. Scale: %

CC(=O)c1c(C)c2cnc(Nc3ccc(N4CCNCC4)cn3)nc2n(C2CCCC2)c1=O + CC(Nc1ccc2c(c1)OCCn1cc(N3C(=O)OCC3C(F)F)nc1-2)C(N)=O | 100
CCN1CCN(Cc2ccc(Nc3ncc(F)c(-c4cc(F)c5nc(C)n(C(C)C)c5c4)n3)nc2)CC1 + Cc1nc(NC(=O)N2CCCC2C(N)=O)sc1-c1ccnc(C(C)(C)C(F)(F)F)c1 | 95.8

Now consider a different compound.
Quickly give me recorded viability, T/C for CC(C)n1nc(-c2ccc3oc(N)nc3c2)c2c(N)ncnc21 + Cc1nc(NC(=O)N2CCCC2C(N)=O)sc1-c1ccnc(C(C)(C)C(F)(F)F)c1
95.2

---

# Test system: 475296-252-R-J1-PDC spheroid viability
# protocol-details: Anticancer human tumor 475296-252-R-J1-PDC cell line growth inhibition [PI3K];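 further: spheroids exposed to agents for seven days before readout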
# cond: second compound 3.16 µM; first compound 0.1 µM; stronger effect = lower value; spheroids with HUVEC and MSC
Values of viability, T/C strictly less than 90% map to rule met, and values of at least 90% map to rule not met.

viability, T/C strictly < 90% for this compound? CC(C)NCC(C(=O)N1CCN(c2ncnc3c2C(C)CC3O)CC1)c1ccc(Cl)cc1 (stereo unspecified) + Cc1nc(NC(=O)N2CCCC2C(N)=O)sc1-c1ccnc(C(C)(C)C(F)(F)F)c1
rule not met

Quick check: does CC(C)n1nc(-c2ccc3oc(N)nc3c2)c2c(N)ncnc21 + Cc1nc(NC(=O)N2CCCC2C(N)=O)sc1-c1ccnc(C(C)(C)C(F)(F)F)c1 have viability, T/C under 90%?
rule met

---

# Test system: 475296-252-R-J1-PDC spheroid viability
# protocol-details: Anticancer human tumor 475296-252-R-J1-PDC cell line growth inhibition [PI3K];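 further: spheroids exposed to agents for seven days before readout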
# cond: second compound 0.0316 µM; first compound 0.1 µM; stronger effect = lower value; spheroids with HUVEC and MSC
Lab note: class by viability, T/C, see c1: < 80%; c2: ≥ 80% and < 90%; c3: ≥ 90%

CCN1CCN(Cc2ccc(Nc3ncc(F)c(-c4cc(F)c5nc(C)n(C(C)C)c5c4)n3)nc2)CC1 + CC(Nc1ncnc2nc[nH]c12)c1cc2cccc(Cl)c2c(=O)n1-c1ccccc1 | c2
CC(C)n1nc(-c2ccc3oc(N)nc3c2)c2c(N)ncnc21 + CC(Nc1ncnc2nc[nH]c12)c1cc2cccc(Cl)c2c(=O)n1-c1ccccc1 | c1
CC(C)n1nc(-c2ccc3oc(N)nc3c2)c2c(N)ncnc21 + Cc1nc(NC(=O)N2CCCC2C(N)=O)sc1-c1ccnc(C(C)(C)C(F)(F)F)c1 | c1
C=CC(=O)N1CCN(c2nc(=O)n(-c3c(C)ccnc3C(C)C)c3nc(-c4c(O)cccc4F)c(F)cc23)C(C)C1 (stereo unspecified) + CC(Nc1ccc2c(c1)OCCn1cc(N3C(=O)OCC3C(F)F)nc1-2)C(N)=O | c3
CC(=O)c1c(C)c2cnc(Nc3ccc(N4CCNCC4)cn3)nc2n(C2CCCC2)c1=O + COc1c(OCCCN2CCOCC2)ccc2c3n(c(=NC(=O)c4cnc(N)nc4)nc12)CCN3 | c3

Which category fits this record: CC(C)n1nc(-c2ccc3oc(N)nc3c2)c2c(N)ncnc21 + COc1c(OCCCN2CCOCC2)ccc2c3n(c(=NC(=O)c4cnc(N)nc4)nc12)CCN3
c1

Lab note: which band did Cn1ncc(Cl)c1-c1cc(C(=O)NC(CN)Cc2cccc(F)c2)sc1Cl (stereo unspecified) + CC(Nc1ncnc2nc[nH]c12)c1cc2cccc(Cl)c2c(=O)n1-c1ccccc1 land in?
c2

---

# Test system: 475296-252-R-J1-PDC spheroid viability
# protocol-details: Anticancer human tumor 475296-252-R-J1-PDC cell line growth inhibition [PI3K];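 further: spheroids exposed to agents for seven days before readout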
# cond: second compound 0.00316 µM; first compound 0.000316 µM; stronger effect = lower value; spheroids with HUVEC and MSC
quantity-measured: viability, T/C (%)
Field: numeric (%). Do not append units.

The following compounds have reported results that may help.
CC(C)n1nc(-c2ccc3oc(N)nc3c2)c2c(N)ncnc21 + COc1c(OCCCN2CCOCC2)ccc2c3n(c(=NC(=O)c4cnc(N)nc4)nc12)CCN3 | 96.8
CC(=O)c1c(C)c2cnc(Nc3ccc(N4CCNCC4)cn3)nc2n(C2CCCC2)c1=O + COc1c(OCCCN2CCOCC2)ccc2c3n(c(=NC(=O)c4cnc(N)nc4)nc12)CCN3 | 108
CC(C)n1nc(-c2ccc3oc(N)nc3c2)c2c(N)ncnc21 + CC(Nc1ccc2c(c1)OCCn1cc(N3C(=O)OCC3C(F)F)nc1-2)C(N)=O | 91
Cn1ncnc1[C@H]1c2n[nH]c(=O)c3cc(F)cc(c23)N[C@@H]1c1ccc(F)cc1 + CC(Nc1ccc2c(c1)OCCn1cc(N3C(=O)OCC3C(F)F)nc1-2)C(N)=O | 88.1
Cn1ncnc1[C@H]1c2n[nH]c(=O)c3cc(F)cc(c23)N[C@@H]1c1ccc(F)cc1 + COc1c(OCCCN2CCOCC2)ccc2c3n(c(=NC(=O)c4cnc(N)nc4)nc12)CCN3 | 91.6

Identify viability, T/C associated with the compound CC(=O)c1c(C)c2cnc(Nc3ccc(N4CCNCC4)cn3)nc2n(C2CCCC2)c1=O + CC(Nc1ccc2c(c1)OCCn1cc(N3C(=O)OCC3C(F)F)nc1-2)C(N)=O
93.5

---

# Test system: 475296-252-R-J1-PDC spheroid viability
# protocol-details: Anticancer human tumor 475296-252-R-J1-PDC cell line growth inhibition [PI3K];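 further: spheroids exposed to agents for seven days before readout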
# cond: curve of first compound; second compound 0.01 µM; spheroids with HUVEC and MSC
pIC50: −log10 of the molar value.
The molecules listed here are annotated with their pIC50.

Below, each entry is followed by its recorded pIC50 result.
Cn1cnc2c(F)c(Nc3ccc(Br)cc3Cl)c(C(=O)NOCCO)cc21 + CC(Nc1ccc2c(c1)OCCn1cc(N3C(=O)OCC3C(F)F)nc1-2)C(N)=O | < 5.52
Cn1ncc(Cl)c1-c1cc(C(=O)NC(CN)Cc2cccc(F)c2)sc1Cl (stereo not given) + COc1c(OCCCN2CCOCC2)ccc2c3n(c(=NC(=O)c4cnc(N)nc4)nc12)CCN3 | < 5.00
C#Cc1c(F)ccc2cc(O)cc(-c3ncc4c(N5CC6CCC(C5)N6)nc(OCC56CCCN5CC(F)C6)nc4c3F)c12 (stereo not given) + COc1c(OCCCN2CCOCC2)ccc2c3n(c(=NC(=O)c4cnc(N)nc4)nc12)CCN3 | 5.68

Give reported pIC50 value for Cn1nccc1Nc1nccc(-c2ccn(C(CO)c3ccc(Cl)c(F)c3)c(=O)c2)n1 (stereo not given) + CC(Nc1ccc2c(c1)OCCn1cc(N3C(=O)OCC3C(F)F)nc1-2)C(N)=O
< 5.00

Indicate its recorded pIC50; the molecule in question is CNC(=O)c1ccc(N2C(=S)N(c3ccc(C#N)c(C(F)(F)F)c3)C(=O)C2(C)C)cc1F + COc1c(OCCCN2CCOCC2)ccc2c3n(c(=NC(=O)c4cnc(N)nc4)nc12)CCN3
< 5.00

---

# System: 475296-252-R-J1-PDC spheroid viability
# protocol-details: Anticancer human tumor 475296-252-R-J1-PDC cell line growth inhibition [PI3K];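 further: spheroids exposed to agents for seven days before readout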
# cond: curve of first compound; second compound 0.0316 µM; spheroids with HUVEC and MSC
pIC50: −log10 of the molar value.
Entries and their pIC50

Illustrative cases are given below, each with its answer.
CC(=O)c1c(C)c2cnc(Nc3ccc(N4CCNCC4)cn3)nc2n(C2CCCC2)c1=O + COc1c(OCCCN2CCOCC2)ccc2c3n(c(=NC(=O)c4cnc(N)nc4)nc12)CCN3 | < 7.00
CNC(=O)c1ccc(N2C(=S)N(c3ccc(C#N)c(C(F)(F)F)c3)C(=O)C2(C)C)cc1F + CC(Nc1ncnc2nc[nH]c12)c1cc2cccc(Cl)c2c(=O)n1-c1ccccc1 | < 5.00

API: the following record is the query input.
Tell me its pIC50 given CCCS(=O)(=O)Nc1ccc(F)c(C(=O)c2c[nH]c3ncc(-c4ccc(Cl)cc4)cc23)c1F + COc1c(OCCCN2CCOCC2)ccc2c3n(c(=NC(=O)c4cnc(N)nc4)nc12)CCN3 as the entry.
< 5.00
